Data provenance is PubChem BioAssay (NCI).

test system: TK-10 renal; assay: NCI tumour cell line growth inhibition, 48 h
// reported TGI for each item listed

COMPOUND	REPORTED PROPERTY	REPORTED
COc1ccc(Cn2c(Br)c3c(c2-c2cc(OC)c(OC)c(OC)c2)CCc2sc(N)nc2-3)cc1	TGI	6.96 µM
O=C1NC(=O)C2C3C=CC(C12)C1C2C(=O)NC(=O)C2C31 (stereo unspecified)	TGI	> 1000 µM
CC(C)=CCC[C@@H](C)C1=C(N)C(O)=C(C)C(=O)C1=O	TGI	> 75 µM
Cc1cc(C=O)c2c(=O)c3c(O)ccc(/C=C/C(C)C)c3oc2c1	TGI	> 100 µM

Fill blank: measured TGI of the compound CCOc1ccc(OP2(=O)NC(=O)C=C(C)N2)cc1 (stereo unspecified) is ____.
> 100 µM

What do we get for `CN1S(=O)(=O)N(C)P12(N=P(CP(=NP13(N(C)S(=O)(=O)N1C)N(C)S(=O)(=O)N3C)(c1ccccc1)c1ccccc1)(c1ccccc1)c1ccccc1)N(C)S(=O)(=O)N2C` ?
> 100 µM

What do we get for `O=c1c(-c2ccccc2)c(SCCCN2CCCCC2)n(-c2ccccc2)c(=S)n1-c1ccccc1` ?
37.3 µM

What do we get for `COc1cc(Nc2cc(Cl)cc(Cl)c2)nc(N)n1` ?
53.9 µM

###

tested on: OVCAR-8 ovarian; assay: NCI tumour cell line growth inhibition, 48 h
REPORTED PROPERTY: GI50

Fill blank: measured GI50 of the compound `O=C1NC(=O)N(S(=O)(=O)c2cc(C(=O)Nc3ccc(Cl)cc3)c(Cl)cc2S)S(=O)(=O)N1` is ____.
24800 nM

What do we get for `COc1cc2c(Oc3ccc(-c4cnc(Nc5ccc(F)cc5)n(C)c4=O)cc3F)ccnc2cc1OCCCN1CCOCC1` ?
1870 nM

What do we get for `CNCc1cccc2c1OCCOCCOCCNS(=O)(=O)c1ccc(cc1)-c1cnc(N)c(n1)C(=O)N2` ?
1610 nM

What do we get for CC(C)(C)OC(=O)CC(NC(=O)OCc1ccccc1)NC(=O)OC(C)(C)C (centres undefined) ?
57.5 µg/mL

###

system: NCI-H23 lung; assay: NCI tumour cell line growth inhibition, 48 h
REPORTED PROPERTY: TGI

COMPOUND	TGI
CC1OC(OC2C(OC(=O)[C@]34CCC(C)(C)C[C@H]3C3=CC[C@@H]5[C@@]6(C)CC[C@H](OC7OC(CO)C(O)C(O)C7OC7OC(CO)C(O)C(O)C7O)C(C)(C)[C@@H]6CC[C@@]5(C)[C@]3(C)CC4)OCC(O)C2O)C(O)C(O)C1OC1OCC(O)C(O)C1O (some centres not stated)	24.5 µM
C/C=C1/C=CC2c3[nH]c4ccccc4c3CCN2C1 (configuration not stated)	> 400 µM
C#CCCCCCC(=O)N[C@H]1C=C[C@@H]2/C=C(C)/C=C/[C@@H](C)[C@H]([C@H](C)[C@H](O)[C@@H](C)NC(C)=O)OC(=O)/C=C/C=C(C)\C=C\[C@]2(C)C1	> 40 µM
COC1=CC(=O)C(O)=C(CC2(C)C(C)CCC3(C)C2CCCC3(C)C)C1=O (configuration not stated)	8.05 µM
COc1ccc(-c2c(Nc3ccccn3)nc3c(C4=CCCCC4)c(-c4ccccc4)[nH]n3c2=O)cc1	24.1 µM

Fill blank: measured TGI of the compound `O=c1c2ccccc2nc2n1CCc1c-2[nH]c2ccccc12` is ____.
37.4 µM

What do we get for ON1CCc2c([nH]c3ccccc23)C1c1ccc(Cl)cc1 (configuration not stated) ?
86.9 µM
